These data points were gathered from ChEMBL document CHEMBL4342482.

Experimental System: Type II inositol 1,4,5-trisphosphate 5-phosphatase (Homo sapiens, UniProt P32019)
Sequence (P32019 whole entry, the tested form may be a part): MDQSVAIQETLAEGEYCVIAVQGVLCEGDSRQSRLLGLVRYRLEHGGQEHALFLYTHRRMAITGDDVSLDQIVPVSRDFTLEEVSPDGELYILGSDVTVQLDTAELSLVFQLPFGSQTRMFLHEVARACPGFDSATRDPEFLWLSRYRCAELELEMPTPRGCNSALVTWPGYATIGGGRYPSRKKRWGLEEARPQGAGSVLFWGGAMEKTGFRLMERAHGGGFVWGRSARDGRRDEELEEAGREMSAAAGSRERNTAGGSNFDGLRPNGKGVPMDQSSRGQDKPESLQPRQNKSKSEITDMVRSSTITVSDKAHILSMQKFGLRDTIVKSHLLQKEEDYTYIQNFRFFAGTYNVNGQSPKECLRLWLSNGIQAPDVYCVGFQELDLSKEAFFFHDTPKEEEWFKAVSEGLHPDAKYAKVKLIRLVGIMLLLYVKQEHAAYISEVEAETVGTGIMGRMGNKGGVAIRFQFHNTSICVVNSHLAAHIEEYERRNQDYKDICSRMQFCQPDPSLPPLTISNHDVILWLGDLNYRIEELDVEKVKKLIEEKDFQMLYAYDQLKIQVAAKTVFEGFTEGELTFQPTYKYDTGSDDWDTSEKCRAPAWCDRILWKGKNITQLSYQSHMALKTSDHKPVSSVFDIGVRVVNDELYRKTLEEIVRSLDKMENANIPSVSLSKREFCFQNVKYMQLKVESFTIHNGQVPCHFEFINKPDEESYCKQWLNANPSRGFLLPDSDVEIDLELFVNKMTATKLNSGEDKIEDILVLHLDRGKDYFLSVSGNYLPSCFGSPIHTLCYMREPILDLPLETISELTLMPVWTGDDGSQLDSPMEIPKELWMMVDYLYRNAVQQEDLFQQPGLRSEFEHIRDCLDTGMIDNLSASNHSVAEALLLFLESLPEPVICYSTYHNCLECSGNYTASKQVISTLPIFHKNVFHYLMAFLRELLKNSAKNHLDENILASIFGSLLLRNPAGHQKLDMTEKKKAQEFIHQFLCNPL
Procedure Text: Inhibition of recombinant human C-terminal His-tagged INPP5B (259 to 563 residues) expressed in Escherichia coli BL21 (DE3) incubated for 5 mins using Ins(1,4,5)P3 as substrate by malachite green reagent based phosphate assay
pIC50: −log10 of the molar value.
Observed Property: pIC50

> print(dat)
                                        mol                       experimental.system  readout.number
1  O=P(O)(O)Oc1cccc(OP(=O)(O)O)c1OP(=O)(O)O  Type II inositol 1,4,5-trisphosphate 5-phosphatase (Homo sapiens, UniProt P32019)            4.47
